# study_target: CHD5 PHD1 finger (338-393), GST tag cleaved (UniProt Q8TDI0 338-393)
# Sequence (Q8TDI0 338-393): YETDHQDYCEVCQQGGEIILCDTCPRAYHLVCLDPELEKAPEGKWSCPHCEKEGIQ
# assay_summary: SPR
Ends that are not written are not given here.
quantity_measured: pKd
Lab note: report pKd as minus log10 of the concentration in molar units, number only.

Entry ARTKQTARKST-biotin (peptide, UniProt P68431 2-12, looked up) [Histone H3 peptide (1-11) with C-terminal biotin] : reported pKd = ?
4.01
